Tested on: HCC-2998 colon
Experiment: NCI-60 one-dose screen, 48 h (100 = growth as untreated, 0 = no growth, -100 = all killed)
Conditions: 10 µM unless noted
This is part of a sample that, as a whole, favours compounds with a hit. Of some 83,000 tested, about 20% had one in any assay.
Readout name: growth (%)

N#Cc1c(-c2ccccc2)cc(-c2ccccc2)n(CC(=O)O)c1=O 82.4
CN(C)CCCN=c1cc2c(=O)n(CCCN(C)C)c(=O)c3c(NCCCN(C)C)cc4c(O)n(CCCN(C)C)c(=O)c1c4c3-2 13.8
Cc1ccc(-c2cc(-c3ccccc3)n(-c3ccccc3)n2)cc1 99.1
OCc1n(Cc2ccc3ccccc3c2)cc[n+]1Cc1ccc2ccccc2c1 39.8
CCCCCCCCCCCCCCCCNC(=O)Nc1ccc2ccccc2c1 109
CC(C)C[C@H](NC(=O)/C=C/Cn1ccc2ccccc2c1=O)B(O)O 62.5
O=C1N=C(N2CCOCC2)S/C1=C\c1cn(-c2ccccc2)nc1-c1ccccc1 100
c1ccc2c(-c3nc4ccccc4[nH]3)cccc2c1 57.5
CCOc1cc(/C=C/C(=O)CC(=O)/C=C/c2ccc(OC(=O)CNCCN(CC)CC)c(OCC)c2)ccc1OC(=O)CNCCN(CC)CC -71.2
CCN1CCN(c2nc(NNC(=O)Cc3ccccc3)nc(N3CCN(C(c4ccccc4)c4ccccc4)CC3)n2)CC1 38.5
CCN(CC)CCNCC(=O)Oc1ccc(/C=C/C(=O)CC(=O)/C=C/c2ccc(OC(=O)CNCCN(CC)CC)c(OC)c2)cc1OC -24.9
CC(=O)Nc1c(Cl)cc2c(c1Cl)Cc1cc([N+](=O)[O-])ccc1-2 87.4

---

System: HCC-2998 colon
Test: NCI-60 one-dose screen, 48 h
Settings: 10 µM unless noted
The panel holds about 83,000 compounds, 20% with a hit somewhere; the sample as a whole holds those more often. Activity calls are given as the source filed them. Rule for the calls: active = growth percent below 10; inactive = the rest.
Possible outcomes: active, inactive

Molecule	Target or system	Class assignment
C/C(=C\CCc1ccoc1)CC/C=C(\C)CCCN1CCOCC1	HCC-2998 colon	inactive
N#CC(C#N)C(C#N)C#N	HCC-2998 colon	inactive
Cc1[nH]ccc2cc3nc4ccccc4c3cc12	HCC-2998 colon	inactive
Cc1csc(C#Cc2cncc(O)c2)n1	HCC-2998 colon	inactive
COc1ccc(-n2cnc3cc(C(=O)N4CCCCC4)ccc32)cc1	HCC-2998 colon	inactive
O=C(COc1cccc(/C=C2\Cc3ccccc3C2=O)c1)c1ccc(Cl)cc1	HCC-2998 colon	inactive
CCOC(=O)c1cnc2c(C)cc(C)cc2c1NCCCN(C)C	HCC-2998 colon	inactive
O=C(O)c1ccc2cccnc2c1O	HCC-2998 colon	inactive
CCCCCCCSc1ncnc2[nH]ncc12	HCC-2998 colon	inactive
N[C@H](CS)C(=O)O	HCC-2998 colon	inactive
O=C1Nc2ccc(C(=O)O)c(O)c2C1=O	HCC-2998 colon	inactive
CC(=O)Nc1cc2c3c(cccc3c1)-c1ccccc1-2	HCC-2998 colon	inactive
COc1cnc2c(c1)C(=O)c1c-2n(CCCNC(C)C)c(=O)c2cc(F)ccc12	HCC-2998 colon	active
CCNCCCn1c2c(c3ccc(F)cc3c1=O)C(=O)c1cc(OC)cnc1-2	HCC-2998 colon	active
CCOc1cc(CCNS(=O)(=O)c2ccc(C)cc2)c(C(C)=O)cc1OCC	HCC-2998 colon	inactive
NC(=O)NC1(C(=O)O)CCCC1	HCC-2998 colon	inactive
c1ccc(COc2ccc(Nc3ncnc4c3cnn4-c3ccccc3)cc2)cc1	HCC-2998 colon	inactive
NS(=O)(=O)c1cc(C2(O)NC(=O)c3ccccc32)ccc1Cl (stereo unspecified)	HCC-2998 colon	inactive
COc1cc(C2=NN(C=O)C(c3cccc(Nc4ccnc5cc(Cl)ccc45)c3)C2)cc(OC)c1OC (stereo unspecified)	HCC-2998 colon	inactive
COc1cccc(C=Nc2cc(C(C)C)c(O)cc2C)c1O	HCC-2998 colon	inactive
O=c1c2c(=NCCCN3CCCC3)cc3c(=O)n(CCCN4CCCC4)c(=O)c4c(NCCCN5CCCC5)cc(c(O)n1CCCN1CCCC1)c2c4-3	HCC-2998 colon	active

---

Test system: NCI-H460 lung
Assay: NCI-60 one-dose screen, 48 h
Settings: 10 µM unless noted
About 83,000 compounds went through this panel and 20% of them were active in at least one assay; those are over-represented in the sample as a whole. Activity calls are given as the source filed them. Rule for the calls: active = growth percent below 10; inactive = the rest.
Labels: 1.0 for active, 0.0 for inactive

Compound	Class assignment
O=C(N/N=C/c1cccc(O)c1O)c1ccccc1	1.0
C/C(=C\CCc1ccoc1)CC/C=C(\C)CCCN1CCOCC1	0.0
CCCCCc1c(C)[nH]c(/C=C2\N=C(c3ccc[nH]3)C=C2Oc2ccccc2)c1C	1.0
COc1ccc2c(c1)sc1nc(-c3ccc(Br)cc3)cn12	0.0
COC(=O)CC1=C(c2ccc([N+](=O)[O-])cc2)CCC1=O	0.0
CC[C@@H](C)/C=C(C)/C=C/C(O)=C1\C(=O)N[C@@H](Cc2ccc(OC(=O)[C@@](OC)(c3ccccc3)C(F)(F)F)cc2)C1=O	0.0
CC1CN(/N=C/c2ccc([N+](=O)[O-])o2)C(=N)O1 (stereo not drawn)	0.0
O=C1NC(=S)S/C1=C\c1cc(Br)ccc1O	0.0

---

# growth per record follows
Test system: HCT-15 colon
Test: NCI-60 one-dose screen, 48 h (100 = growth as untreated, 0 = no growth, -100 = all killed)
Conditions: 10 µM unless noted
About 83,000 compounds went through this panel and 20% of them were active in at least one assay; those are over-represented in the sample as a whole. Active and inactive are the calls of the source. The calls were made as follows: active = growth percent below 10; inactive = the rest.

Molecule	growth
Cc1cc(=O)oc2cc(OCCn3c(C)nn(-c4ccc(Cl)cc4)c3=O)ccc12	17.7% (inactive)
Cc1n(Cc2ccc3ccccc3c2)c2ccccc2[n+]1Cc1ccc2ccccc2c1	15.7% (inactive)
O=C1CNc2cc(Cl)ccc2N1	109% (inactive)
COc1ccc2nc(NC(=O)CN3CCn4c(nnc4C(F)(F)F)C3)sc2c1	93.3% (inactive)
C=C1CCC2C3(C)COC(c4ccccc4)OC3CCC2(C)C1C/C=C1/C(=O)OCC1OC(C)=O (stereo not given)	79.1% (inactive)
C[C@@H]1[C@H]2[C@H](C=C3[C@@H]4CC[C@H]5Cc6nc7c(nc6C[C@]5(C)[C@H]4C[C@@H](O)[C@@]32C)C[C@@H]2CC[C@H]3C4=C[C@@H]5O[C@@]6(CC[C@](C)(CO)O6)[C@@H](C)[C@@]5(O)[C@@]4(C)[C@H](O)C[C@@H]3[C@@]2(C)C7)O[C@]12CCC(C)(C)O2	11.2% (inactive)
O=C(Oc1cccc2ccccc12)c1ccccc1C(=O)c1ccccc1	93.2% (inactive)
COc1ccc2ncccc2c1Cc1c(OC)ccc2ncccc12	57.8% (inactive)
Cc1sc2nc3c4ccccc4c(NCCCN(C)C)nn3c(=O)c2c1C	17.1% (inactive)
O=C(CN1CCN(c2ccc(Cl)cc2)CC1)N1CCN(c2nnc(-c3ccc(Cl)cc3)c(-c3ccc(Cl)cc3)n2)CC1	59% (inactive)
CCOC(=O)c1sc(NC(=O)COc2cccc(/C=C3\CCc4cc(OC)ccc4C3=O)c2)nc1C	56.5% (inactive)
COc1ccc(C(=O)COc2cccc(/C=C3\CSc4ccc(Cl)cc4C3=O)c2)cc1	70.4% (inactive)
Cc1ccc(C2=NNC(c3sc(Cl)nc3Cl)C2)cc1 (stereo not given)	77.3% (inactive)
O=C(/C=C/c1cccc(Nc2ccnc3cc(Cl)ccc23)c1)c1ccc(Cl)cc1	54.8% (inactive)
C[C@H]1C(=O)N2c3ccccc3[C@@]3(O)C[C@@H](n4cnc5ccccc5c4=O)C(=O)N1[C@@H]23	109% (inactive)
CNc1nc(NC2CCCC2)nc(Sc2ccc(OC)cc2)n1	24.8% [100 µM] (inactive)
CSc1nc(-c2ccc(O)cc2O)c2c(=O)[nH]c(Nc3ccc(S(=O)(=O)Nc4nc(C)cc(C)n4)cc3)nc2n1	104% (inactive)
O=c1c2ccccc2c2nccn2c2cc(Cl)ccc12	129% (inactive)
Nc1ccn(C2O[C@H](CO)[C@@H](O)[C@@H]2O)c(=O)n1 (stereo not given in full)	59.5% (inactive)
O=C(Nc1ccccc1)P(=O)(O)c1ccccc1	99.5% (inactive)
COc1cccc(C2=NN(C(C)=O)C(c3cc(OC)c(OC)c(OC)c3)C2)c1 (stereo not given)	31.6% (inactive)
COc1c(O)cc2c(c1CC=C(C)C)OC(=O)c1c(cc(O)c(CC=C(C)C)c1O)O2	44.1% (inactive)
CC1Cc2ccccc2N1C(=O)c1ccc(C(=O)c2ccccc2)cc1 (stereo not given)	86% (inactive)
COC(=O)C1(NC(=O)CNC(=O)OCc2ccccc2)CCCC1	103% (inactive)
COc1cc2c(cc1OC)C(=O)/C(=C/c1cccc(OCC(=O)c3ccccc3)c1)C2	83.4% (inactive)
CC(=O)N1N=C(c2ccc(C(F)(F)F)cc2)CC1c1ccc2c(c1)OCO2 (stereo not given)	81.1% (inactive)
COc1ccc(NS(=O)(=O)N2CCCCC2)cc1	115% (inactive)
CC(=O)N1N=C(c2ccc3c(c2)OCO3)CC1c1c(C)nn(-c2ccccc2)c1N(C)Cc1ccccc1 (stereo not given)	79.2% (inactive)
CNNc1ncnc2c1cnn2-c1ccc(S(N)(=O)=O)cc1	103% (inactive)
N#Cc1c(-c2ccccc2)cc(-c2ccccc2)n(CCC(=O)O)c1=O	29.7% (inactive)
COC(=O)C1CCN(S(=O)(=O)c2ccc(-c3ccccc3)cc2)CC1	110% (inactive)
COC(=O)CC1=C(c2ccc([N+](=O)[O-])cc2)CCC1=O	89.6% (inactive)
COc1ccc(C2=NN(C(C)=O)C(c3cccc(Nc4ccnc5cc(Cl)ccc45)c3)C2)cc1 (stereo not given)	44.8% (inactive)
O=CN1N=C(c2ccc(Cl)cc2)CC1c1cccc(Nc2ccnc3cc(Cl)ccc23)c1 (stereo not given)	16.9% (inactive)
CC1(C)CC2(C)CC(=O)C1C(C(=O)O)C2C(=O)O (stereo not given)	110% (inactive)
